Consider the following compounds; for each one, report its clearance.
test: Clearance in mouse at 10 mg/kg, iv; type: ADME, organism-based; design: dose 10 mg/kg, route intravenous; details: in vivo
The response must be a number in mL/min/kg with no trailing unit.

The compound listed as O=C(CCCCCCC(=O)Nc1ccccc1)NO has a reported clearance of 112

Kindly note the recorded clearance for O=C(CCCCCNC(=O)NC(=O)c1ccccc1)NO , which is 83.8

* * *

test system: A2780; assay: Antiproliferative activity against human A2780 cells; type: functional, cell-based
Provide the reported IC50 of each item.
Report the figure in nM without appending any unit label.

For O=C(CCCCCNC(=O)NC(=O)c1ccccc1)NO on A2780, measured IC50 was 700

A2780 data for O=C(CCCCCNC(=O)NC(=O)c1ccc(Br)cc1)NO ; its IC50: 450

Short answer on A2780 for CCCCc1nc2cc(C(=O)NC(=O)NCCCCCC(=O)NO)ccc2n1CCN1CCCC1 , IC50: 1350

A2780 data for O=C(CCCCCNC(=O)NC(=O)c1ccc(NCCN2CCCC2)c([N+](=O)[O-])c1)NO ; its IC50: 990

* * *

Consider the following compounds; for each one, report its half-life.
test: Half life in human liver microsome; type: ADME; settings: liver microsomes

Per the record, O=C(CCCCCNC(=O)NC(=O)c1ccc(-c2cncnc2)cc1)NO has half-life of > 30 min

// field: half-life; key: O=C(CCCCCNC(=O)NC(=O)c1ccccc1)NO ; value = > 60 min

Lab note: O=C(CCCCCNC(=O)NC(=O)c1ccc(Br)cc1)NO gave half-life of > 60 min

// field: half-life; key: CCCCc1nc2cc(C(=O)NC(=O)NCCCCCC(=O)NO)ccc2n1CCN1CCCC1 ; value = > 30 min

Looking up O=C(CCCCCNC(=O)NC(=O)c1ccc2c(c1)nc(CCc1ccccc1)n2CCN1CCCC1)NO , I see its half-life listed as 21 min

Please fill in: half-life reported for O=C(CCCCCNC(=O)NC(=O)c1ccc(NCCN2CCCC2)c([N+](=O)[O-])c1)NO = > 30 min

The reported half-life of the compound O=C(CCCCCCC(=O)Nc1ccccc1)NO was > 60 min

* * *

target: Histone deacetylase 1 (Homo sapiens)
Sequence (Q13547 whole entry): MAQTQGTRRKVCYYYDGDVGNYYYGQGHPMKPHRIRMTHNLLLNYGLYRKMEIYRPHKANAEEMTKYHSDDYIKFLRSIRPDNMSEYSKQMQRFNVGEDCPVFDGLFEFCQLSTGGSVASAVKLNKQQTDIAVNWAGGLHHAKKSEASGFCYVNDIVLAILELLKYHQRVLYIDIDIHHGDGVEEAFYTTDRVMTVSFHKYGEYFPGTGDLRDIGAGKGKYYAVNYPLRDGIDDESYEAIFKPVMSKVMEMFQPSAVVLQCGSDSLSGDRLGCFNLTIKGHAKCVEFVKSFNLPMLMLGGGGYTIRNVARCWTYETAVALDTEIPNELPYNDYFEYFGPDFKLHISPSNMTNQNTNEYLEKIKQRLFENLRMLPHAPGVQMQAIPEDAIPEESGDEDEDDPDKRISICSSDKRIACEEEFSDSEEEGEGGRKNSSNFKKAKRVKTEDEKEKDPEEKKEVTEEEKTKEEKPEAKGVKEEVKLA
reported.metric: pKi
pKi is a log-scale quantity: -log10 of the concentration expressed in molar.

Entry O=C(CCCCCNC(=O)NC(=O)c1ccccc1)NO ; pKi = 7.80

* * *

Field: IC50. Provide a value for each of the compounds that follow.
Target: Histone deacetylase 8 (Homo sapiens)
Sequence (Q9BY41 whole entry): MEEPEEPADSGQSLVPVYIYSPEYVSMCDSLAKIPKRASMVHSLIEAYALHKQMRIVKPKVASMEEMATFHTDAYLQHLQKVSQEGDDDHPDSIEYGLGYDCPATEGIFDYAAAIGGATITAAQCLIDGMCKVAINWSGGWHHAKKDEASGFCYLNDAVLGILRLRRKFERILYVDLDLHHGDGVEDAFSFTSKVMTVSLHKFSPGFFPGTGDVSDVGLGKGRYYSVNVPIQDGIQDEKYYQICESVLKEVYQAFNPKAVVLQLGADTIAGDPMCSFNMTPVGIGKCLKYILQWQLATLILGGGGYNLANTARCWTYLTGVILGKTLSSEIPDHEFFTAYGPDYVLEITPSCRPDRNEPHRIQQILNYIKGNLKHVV
Give the quantity in nM, number only.

Entry O=C(CCCCCN(CCCc1ccccc1)C(=O)NC(=O)c1ccccc1)NO , IC50 reported as 328

Lab note: O=C(CCCCCNC(=O)NC(=O)c1ccccc1)NO gave IC50 of 608
